test: in vitro; conditions: human, hela cells, % viability
Overview of recorded viability at 28.5 h, 10 µM for various compounds
The reply should be a number in %, with the unit left off.

viability at 28.5 h, 10 µM lookup needed for Clc1ccc(-c2noc(-c3ccco3)n2)cc1 , thanks. 86

###

experiment: in vitro; settings: human, hela cells, % viability
measurement_label: viability at 28.5 h, 10 µM
Quote the value and follow it with the unit of measurement.

Before answering, review these 3 worked examples.
# molecule, viability at 28.5 h, 10 µM
rows = [
    ("O=C(Nc1ccc(N2CCNCC2)nc1)C1CCCO1 (centres unmarked) [CBK004748T]", "85.7%"),
    ("CCn1c(SCC(=O)Nc2ccccc2[N+](=O)[O-])nnc1-c1cc(Br)ccc1O [CBK268201]", "101%"),
    ("Cc1ccc(CN(CCCN(C)C)Cc2nccn2C)o1 [CBK282481]", "105%"),
]

viability at 28.5 h, 10 µM lookup needed for CC(=O)Nc1ccc(NC(=O)CN(C2CCCCC2)S(C)(=O)=O)cc1 [CBK266755] , thanks. 93.3%

Now give it for Cc1ccn2cc(-c3ccc4c(c3)CCN4S(C)(=O)=O)nc2c1 [CBK285221] too. 88.3%

###

assay: in vitro; conditions: human, hela cells, % viability
Simple rule here: viability at 28.5 h, 10 µM less than 90% is T, otherwise F.

# molecule, class_assignment
measured = [
    ("Cc1ccccc1C(=O)Nc1cccc(NC(=O)c2nc[nH]n2)c1", "T"),
    ("COc1nccnc1OC1CCN(CC2CCCCC2)CC1", "F"),
]

Please determine if O=C(Nc1ccsc1C(=O)O)c1ccc(Cl)cc1 is below 90% in terms of viability at 28.5 h, 10 µM. F

Now give it for O=C(Cc1c[nH]c2ccccc12)N1CCC2(CCCN(Cc3c(F)cccc3F)C2)C1 (stereo not drawn) too. F

Now give it for CNC(=O)c1cc(-c2cccc(C)c2)oc1C too. T

Now give it for Cc1ccc2nc(-c3ccc(NC(=O)CSc4nc(-c5ccccc5)cc(=O)[nH]4)cc3)sc2c1 too. T

###

Overview of recorded viability at 28.5 h, 10 µM for various compounds
assay: in vitro; conditions: human, hela cells, % viability
The reply should be a number in %, with the unit left off.

Before answering, review these 6 worked examples.
# compound, reading_unit, viability at 28.5 h, 10 µM
records = [
    ("c1ccc2[nH]c(NCCN3CCOCC3)nc2c1 [CBK268791]", "%", 96.7),
    ("O=C(c1cccnc1)N1CCN(CCN2C(=O)C3C4C=CC(C4)C3C2=O)CC1 (centres unmarked) [CBK263639]", "%", 98.2),
    ("Cc1c(C(=O)NC(Cc2ccsc2)c2cccnc2)cnn1C (centres unmarked) [CBK285115]", "%", 110),
    ("Cc1cc(C)c(NC(=O)N(CCCO)Cc2ccncc2)c(Cl)c1 [CBK304406]", "%", 87.3),
    ("Nc1nc(-n2cnnc2)nn1-c1ccccc1 [CBK265015]", "%", 97.2),
    ("CN(C)CCN(C)C(=O)c1ccc(-c2ccccc2CO)nc1N(C)C [CBK076591]", "%", 95),
]

viability at 28.5 h, 10 µM lookup needed for CNC(=O)c1c(C)nc2ccccc2c1SCCC(=O)O [CBK154987T] , thanks. 101

Now give it for COCCn1c(C)cc(C(=O)CSc2cc(C)c3ccccc3n2)c1C [CBK266437] too. 70.3

Now give it for Cn1c(/C(C#N)=C\c2ccc(-c3ccc(S(N)(=O)=O)cc3)o2)nc2ccccc21 [CBK266380] too. 95

Now give it for CC(C(=O)Nc1ccc(F)c(F)c1)n1cc([N+](=O)[O-])cn1 (centres unmarked) [CBK268771] too. 92.9

Now give it for O=C(NCCCN1CCOCC1)Nc1ccccc1F [CBK269233] too. 88.6

Now give it for CN1CCN(NC(=O)C2C3C=CC(C3)C2C(=O)O)CC1 (centres unmarked) [CBK286915] too. 90.1

Now give it for O=C(O)CNCc1ccc(-c2ccc(Cl)cc2)o1 [CBK287258] too. 102

Now give it for CNC(=O)C1(Cc2cccc(-c3cccs3)c2)CCN(C(=O)c2ccccc2)CC1 [CBK285720] too. 88.3

Now give it for O=C(CCn1c(-c2ccncc2)cc2cccnc21)NC1CCCCC1 [CBK282621] too. 87.8

Ref: paper PMC12040169
